Origin of the recorded values: ChEMBL document CHEMBL3045851

tested on: Salmonella typhimurium; experiment: Antibacterial activity against Salmonella enterica subsp. enterica serovar Typhimurium MTCC 98 after overnight incubation by broth dilution method; format: functional
Please provide measured MIC99 for the entries that follow.
Numbers only, in mg/L.

Example entries and their recorded answers appear below.
{"Molecule": "O=C(Nn1c(CNN2C(=O)C(Cl)C2c2ccc(Cl)cc2)nc2ccccc2c1=O)c1ccncc1 (stereo not drawn)", "Reported": 100}
{"Molecule": "CC1(C)S[C@@H]2[C@H](NC(=O)[C@H](N)c3ccccc3)C(=O)N2[C@H]1C(=O)O [AMPICILLIN]", "Reported": 100}

Let's switch to this molecule now.
# query: MIC99 of entry O=C(Nn1c(CNN2C(=O)C(Cl)C2c2ccc(Br)cc2)nc2ccccc2c1=O)c1ccncc1 (stereo not drawn)
100
